- measurement-protocol: Cytotoxicity against MDCK cells after 48 hrs by Reed and Muench analysis
- Format: cell-based, Canis lupus familiaris
- experimental-context: dog, read-out: TC50
This section presents molecules with their documented CC50 at 48 h values.
Kindly answer with a numeric value in µg/mL, unit omitted.

C=C(C(=O)OC)[C@@H]1CC[C@H](C)[C@H]2C(=C(C)C(=O)[C@@H]2C(O)c2ccncc2)C1 (single isomer, unassigned)
80.1
C=C(C(=O)OC)[C@@H]1CC[C@H](C)[C@H]2C(=C(C)C(=O)[C@@H]2C(O)c2cc(C(F)(F)F)cc(C(F)(F)F)c2)C1 (single isomer, unassigned)
32.1

Attention now turns to another entry.
Assign CC50 at 48 h to the following record: `C=C(C(=O)OC)[C@@H]1CC[C@H](C)[C@H]2C(=C(C)C(=O)[C@@H]2[C@H](O)CC)C1`
167
